# TARGET OR SYSTEM: T1, human CD71 extracellular domain (human, UniProt P02786 89-760, biotinylated)
# T1 construct: extracellular domain; also called hCD71; huCD71 ECD
# T1 sequence (P02786 other isoform, or with tags, fused parts or gaps): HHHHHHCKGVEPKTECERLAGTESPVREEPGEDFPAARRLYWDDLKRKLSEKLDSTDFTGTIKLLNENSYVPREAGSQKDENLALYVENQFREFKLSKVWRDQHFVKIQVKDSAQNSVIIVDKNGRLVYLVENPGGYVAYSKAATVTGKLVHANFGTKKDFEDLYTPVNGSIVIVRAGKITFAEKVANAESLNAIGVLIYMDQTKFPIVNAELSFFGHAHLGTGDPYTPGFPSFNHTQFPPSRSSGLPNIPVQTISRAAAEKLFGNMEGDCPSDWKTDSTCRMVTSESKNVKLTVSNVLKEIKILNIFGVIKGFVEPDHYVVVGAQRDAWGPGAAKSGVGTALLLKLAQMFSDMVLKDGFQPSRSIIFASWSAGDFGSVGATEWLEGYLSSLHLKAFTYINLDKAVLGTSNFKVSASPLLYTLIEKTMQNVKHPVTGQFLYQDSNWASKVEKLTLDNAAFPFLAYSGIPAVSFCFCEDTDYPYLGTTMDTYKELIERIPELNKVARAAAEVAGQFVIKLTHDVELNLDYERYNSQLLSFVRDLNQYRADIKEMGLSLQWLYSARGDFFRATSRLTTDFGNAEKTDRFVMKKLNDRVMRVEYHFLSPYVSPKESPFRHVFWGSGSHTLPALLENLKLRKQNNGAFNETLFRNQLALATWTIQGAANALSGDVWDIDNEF
# METHOD NOTES: solution ELISA screen, signal ratio to HSA control
ENDPOINT: hCD71:HSA (ratio)

[I] SEQ ID NO 240 (designed binder, not shown: small tags and cut ends) MLPAPKNLVVSRVTEDSARLSWTAPDAAFDSFYIAYAEPRPDGEAISLSVPGSERSYDLTGLKPGTEYSVLIHGVKGGLLSSPLHAKFTT
[II] SEQ ID NO 248 (designed binder, not shown: small tags and cut ends) MLPAPKNLVVSRVTEDSARLSWTAPDAAFDSFYIAYAEPRPDGEAIWLGVPGSERSYDLTGLKPGTEYSVLIHGVKGGLLSSPLHATFTT
Please tell me which of the two, I or II , has the higher reported hCD71:HSA value. Refer to your chosen entry by its label in the reply.
I
